test system: Fibrinogen (Alexa647-labelled); experiment: fibrinogen binders on compound microarrays, profiling panel, artefact control for SMM control-protein annotation, biochemical, small-molecule microarray, 635/667 nm fluorescence (AID 1131); conditions: fibrinogen-A647 binding fluorescence, higher = more signal;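 also: z-score merges 667 nm fluorescence with per-spot signal-to-noise over triplicate slides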
For each of the compounds below, state its composite z-score.

The reported composite z-score of the compound CC(C)[C@H]1NC(=O)[C@@]23C(=O)N[C@@H](Cc4ccccc4)C2[C@H](C)[C@@]2(C)O[C@H]2C3/C=C/C/C=C\CNC(=O)[C@H](C)NC1=O (some centres not stated) was -0.908

Reported composite z-score of C[C@H]1COC(=O)[C@@H]2CCCN2C(=O)[C@@H](C)COC(=O)[C@@H]2CCCN2C1=O : -0.135

Data point: C=C(COC)C(=O)CC[C@H](OC(=O)c1ccccc1-c1ccccc1C(=O)O)c1cccc(OCCO)c1 ; composite z-score = -0.46

The recorded composite z-score for O=C(NCC(O)CO)[C@]1(Cc2ccccc2)N=C(c2ccc(OCCCO)cc2)O[C@@H]1c1ccccc1 (some centres not stated) is 0.601

Sample CCC1=C2CN(Cc3ccccc3Br)[C@@H]([C@@H](O)Cc3ccccc3)C2C=CCC1 (some centres not stated) ; composite z-score observed: 0.455

Recorded result, CCCNC(=O)[C@@]1(Sc2ccc(C)cc2)CC(=O)N(Cc2ccccc2Cl)[C@@H]1c1ccc(CO)cc1 , composite z-score: 0.789

Sample [N-]=[N+]=NCc1ccccc1C[C@]1(C(N)=O)N=C(c2ccc(OCCCO)cc2)O[C@H]1c1ccccc1CN=[N+]=[N-] ; composite z-score observed: 0.98

The reported composite z-score of the compound Cc1ccc(N2C(=O)c3ccccc3[C@](C)(C(=O)NCC(C)C)[C@@H]2c2ccc(CO)cc2)nc1 was -1.43

For CC(C)[Si]1(C(C)C)OCc2cc(C3CC3)nc(-c3ccccc3)c21 the compound record lists composite z-score as -0.742

Form: compound = CCCC=C(CCC)[C@@H](NS(=O)(=O)c1cccc(C(F)(F)F)c1)c1ccc(C(=O)OC)cc1 ; composite z-score = 0.436

Record O=C1c2ccccc2[C@@]2(Cc3ccccc3N(CC(F)(F)F)C2=O)[C@H](c2ccc(CO)cc2)N1C1CCCCC1 , field composite z-score: -0.243

Value of measured composite z-score for the entry Cc1ccc(S[C@]2(C(=O)NC(C)C)CC(=O)N(Cc3cc(C(F)(F)F)cc(C(F)(F)F)c3)[C@@H]2c2ccc(CO)cc2I)cc1 : -0.306

The compound COc1ccc([Si](C)(C)[C@@H]2[C@@H](CC(=O)N(CCO)Cc3ccccc3)O[C@]3(C(=O)N(Cc4cccc(N5CCC5=O)c4)c4ccccc43)[C@H]2C)cc1 showed composite z-score equal to -0.0806

Lab note: measured composite z-score of COc1ccc(-c2ccccc2[C@@H]2N[C@H](C(=O)O)CC[C@H]2C)cc1 was 0.0159

So, CC1=C([C@H](O)CCc2ccccc2)[C@H](CO)[C@@H]2C(=O)N(Cc3ccccc3)C(=O)[C@@H]2C1 ? Its composite z-score was 0.962

Short answer for Cc1ccc(S[C@]2(C(=O)NCCCN(C)C)CC(=O)N(Cc3ccccc3)[C@@H]2c2ccc(CO)cc2I)cc1 : composite z-score was 0.233

Reported composite z-score ( CCOC(=O)[C@H]1C/C=C/C[C@H](C(=O)OCC)C(=O)O[C@H]2[C@@H](OC)O[C@H](CO)[C@@H](OC(=O)Nc3ccc(Br)cc3)[C@@H]2OC1=O ) = 0.708
